tested on: Escherichia coli; experiment: Antibacterial activity against Escherichia coli JM109 after 24 hrs by two-fold microbroth dilution method; format: functional; conditions: JM109, 24 h
Overview of reported MIC across a group of compounds:
endpoint.label: MIC

* CCCCCCCCn1c2ccc(-c3csc(N)n3)cc2c2cc(-c3csc(N)n3)ccc21 | 512 µg/mL
* CCCCCCCCCCCCCCCCCCn1c2ccc(-c3csc(N)n3)cc2c2cc(-c3csc(N)n3)ccc21 | 128 µg/mL
* CCn1cc(C(=O)O)c(=O)c2cc(F)c(N3CCNCC3)cc21 [NORFLOXACIN] | 16 µg/mL
* CCCCCCCCCCn1c2ccc(C(=O)CCl)cc2c2cc(C(=O)CCl)ccc21 | 512 µg/mL
* CCCCCCCn1c2ccc(C(=O)CCl)cc2c2cc(C(=O)CCl)ccc21 | 512 µg/mL
* CCCCCCCCn1c2ccc(C(=O)CCl)cc2c2cc(C(=O)CCl)ccc21 | 512 µg/mL
* CCCCn1c2ccc(C(=O)CCl)cc2c2cc(C(=O)CCl)ccc21 | 512 µg/mL
* CCn1c2ccc(C(=O)CCl)cc2c2cc(C(=O)CCl)ccc21 | 512 µg/mL
